Provenance of the data: patent US10975056B2

Tested on: erythroid progenitor cells (EPCs)
ASSAY: Fetal hemoglobin (HbF) ELISA in day 7 erythroid progenitor cells;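 further: for fetal hemoglobin induction normalized to vehicle-treated cells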
Assay type: cell-based, human
TEST PARAMETERS: Homo sapiens, Erythroid progenitor cell, HbF ELISA, day 7 EPCs, 5 days; read-out: EPC ELISA (pEC50 category) (converted)
PROPERTY MEASURED: EC50

COMPOUND	EC50
CCc1c(C#N)c(S[C@H](C(N)=O)c2ccccc2)nc(N2CCC(C)(N)CC2)c1C#N (single isomer, unassigned)	< 316 nM
CCc1c(C#N)c(SC(C(N)=O)c2ccccc2)nc(N2CCC(NCC(C)(C)O)CC2)c1C#N (stereo not drawn)	< 316 nM
CCc1c(C#N)c(SC(C(N)=O)c2ccccc2)nc(N(C)CCOC)c1C#N (stereo not drawn)	1000 to 31600 nM
CCc1c(C#N)c(SC(C(N)=O)c2ccccc2)nc(N2CCC(NC3CC3)CC2)c1C#N (stereo not drawn)	< 316 nM
CCOc1c(C#N)c(SC(C(N)=O)c2ccccc2)nc(N(C)C)c1C#N (stereo not drawn)	1000 to 31600 nM
CCc1c(C#N)c(SC(C(N)=O)c2ccccc2)nc(N2CCOC(CNC)C2)c1C#N (stereo not drawn)	< 316 nM
CCc1c(C#N)c(SCc2ccc(C(=O)Nc3cn[nH]c3)cc2)nc(N2CCCN(C)CC2)c1C#N	> 31600 nM
CCc1c(C#N)c(SCc2ccc(N(C)S(C)(=O)=O)cc2)nc(N(C)CCN2CCCCC2)c1C#N	< 316 nM
CCc1c(C#N)c(SC(C(N)=O)c2ccccc2)nc(N2CCC(OCCOC(=O)[C@@H](N)C(C)C)CC2)c1C#N (stereo partly drawn)	316 to 1000 nM
CCc1c(C#N)c(SC(C(N)=O)c2ccccc2)nc(N2CCC(CN(C)C)C2)c1C#N (stereo not drawn)	< 316 nM

Look up EC50 of CCc1c(C#N)c(SC(C(N)=O)c2ccccc2)nc(N2CCC(ONC(=N)N)CC2)c1C#N (stereo not drawn) and report it. 1000 to 31600 nM

Fill in reported EC50 for this entry: CCc1c(C#N)c(SC(C(N)=O)c2ccccc2)nc(N2CCC(NC(=O)C3(N)COC3)CC2)c1C#N (stereo not drawn) 1000 to 31600 nM

---

Tested on: erythroid progenitor cells (EPCs)
ASSAY: Fetal hemoglobin (HbF) ELISA in day 7 erythroid progenitor cells;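 further: for fetal hemoglobin induction normalized to vehicle-treated cells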
Assay type: cell-based, human
TEST PARAMETERS: Homo sapiens, Erythroid progenitor cell, HbF ELISA, day 7 EPCs, 5 days; read-out: EPC ELISA (pEC50 category) (converted)
Below, each entry is listed alongside its reported EC50.

MOLECULE	EXPERIMENTAL RESULT
CCc1c(C#N)c(SC(C(N)=O)c2cccc(F)c2F)nc(N2CC[C@H](O)C2)c1C#N (stereo partly drawn) [Example 429]	316 to 1000 nM

As a next step, examine the molecule that follows.
Quick one: give measured EC50 for CCc1c(C#N)c(S[C@H](C(N)=O)c2ccccc2)nc(N2CC[C@H](O)C2)c1C#N [Example 320] 316 to 1000 nM

---

Tested on: erythroid progenitor cells (EPCs)
ASSAY: Fetal hemoglobin (HbF) ELISA in day 7 erythroid progenitor cells;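 further: for fetal hemoglobin induction normalized to vehicle-treated cells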
Assay type: cell-based, human
TEST PARAMETERS: Homo sapiens, Erythroid progenitor cell, HbF ELISA, day 7 EPCs, 5 days; read-out: EPC ELISA (pEC50 category) (converted)
PROPERTY MEASURED: EC50

Worked examples follow.
COMPOUND	EC50
CCc1c(C#N)c(S[C@@H](C(N)=O)c2ccccc2)nc(N2CC[C@](O)(CO)C2)c1C#N	1000 to 31600 nM
CCc1c(C#N)c(SC(C(N)=O)c2ccccc2)nc(N2CCC(NC(=O)[C@H](N)CO)CC2)c1C#N (some centres unmarked)	1000 to 31600 nM
CCc1c(C#N)c(SCc2ccc(CC(N)=O)cc2)nc(N2CCCN(C)CC2)c1C#N	< 316 nM
CCc1c(C#N)c(SC(C(N)=O)c2ccccc2)nc(N2CC(N)C2)c1C#N (centres unmarked)	316 to 1000 nM
CCc1c(C#N)c(SCc2ccc(N(C)S(C)(=O)=O)cc2)nc(N2CCOC(CNC)C2)c1C#N (centres unmarked)	316 to 1000 nM

Tell us which EC50 value is on record for N#Cc1c(SC(C(N)=O)c2ccccc2)nc(N2CCCC(N)C2)c(C#N)c1C1CC1 (centres unmarked) < 316 nM

Entry CCc1c(C#N)c(SC(C(N)=O)c2ccc(F)cc2)nc(N2CCC(NCC(C)(C)O)CC2)c1C#N (centres unmarked) needs its EC50 filled in; supply it. < 316 nM

Provide EC50 value for the following compound: CCc1c(C#N)c(SCc2ccc(CNS(C)(=O)=O)cc2)nc(N2CCCN(C)CC2)c1C#N 316 to 1000 nM

---

EC50 listing for selected compounds.
System: erythroid progenitor cells (EPCs)
ASSAY: Fetal hemoglobin (HbF) ELISA in day 7 erythroid progenitor cells;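 further: for fetal hemoglobin induction normalized to vehicle-treated cells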
Assay type: cell-based, human
TEST PARAMETERS: Homo sapiens, Erythroid progenitor cell, HbF ELISA, day 7 EPCs, 5 days; read-out: EPC ELISA (pEC50 category) (converted)
Structures can show the parent of a compound that is named as a salt.

COMPOUND	EC50
CCc1c(C#N)c(SCc2ccc(CNC(=O)C(C)C)cc2)nc(N2CCCN(C)CC2)c1C#N	> 31.6 µM
CCc1c(C#N)c(SC(C(N)=O)c2cc(OC)ccn2)nc(N2CCCN(C)CC2)c1C#N (stereo not shown)	> 31.6 µM
CCc1c(C#N)c(S[C@@H](C(N)=O)c2ccccc2)nc(N2CC[C@@H](N)[C@H](O)C2)c1C#N	< 0.316 µM

Could you please provide reported EC50 for CCc1c(C#N)c(SC(C(N)=O)c2ccccc2)nc(N2CCC(N)(CO)CC2)c1C#N (stereo not shown) [Example 242, Trifluoroacetic Acid Salt] ? Thanks! < 0.316 µM

---

Recorded EC50 by entry
Tested on: erythroid progenitor cells (EPCs)
ASSAY: Fetal hemoglobin (HbF) ELISA in day 7 erythroid progenitor cells;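 further: for fetal hemoglobin induction normalized to vehicle-treated cells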
Format: cell-based, human
TEST PARAMETERS: Homo sapiens, Erythroid progenitor cell, HbF ELISA, day 7 EPCs, 5 days; read-out: EPC ELISA (pEC50 category) (converted)
Counter-ions that a name gives are not always drawn.

Below, each entry is followed by its recorded EC50 result.
MOLECULE	EC50
CCc1c(C#N)c(SC(C(N)=O)c2ccccc2)nc(N2CCC(N)C(F)(F)C2)c1C#N (centres unmarked) [Example 382]	< 316 nM
CCc1c(C#N)c(SC(C(N)=O)c2ccccn2)nc(N2CC[C@H](O)C2)c1C#N (some centres unmarked) [Example 322]	316 to 1000 nM
CCc1c(C#N)c(SCc2ccc(CNCCO)cc2)nc(N2CCCN(C)CC2)c1C#N [Example 90]	> 31600 nM
CCc1c(C#N)c(SC(C(N)=O)c2ccccc2)nc(SC(C(N)=O)c2ccccc2)c1C#N (centres unmarked) [Example 276]	> 31600 nM
CCc1c(C#N)c(SCc2ccc(CNC(C)=O)cc2)nc(N2CC(OC(=O)[C@@H](N)C(C)C)C2)c1C#N [Example 282, Trifluoroacetic Acid Salt]	1000 to 31600 nM
CCc1c(C#N)c(SC(C(N)=O)c2ccc(F)cc2)nc(N2CCC[C@H](CN)C2)c1C#N (some centres unmarked) [Example 593]	< 316 nM

Tell me measured EC50 for CCc1c(C#N)c(SC(C(N)=O)c2ccncc2)nc(N(C)C)c1C#N (centres unmarked) [Example 27] please. > 31600 nM

Read off the recorded EC50 for CCc1c(C#N)c(SCc2ccc(CS(C)(=O)=O)cc2)nc(N2CCCN(C)CC2)c1C#N [Example 403] 316 to 1000 nM

---

Test system: erythroid progenitor cells (EPCs)
ASSAY: Fetal hemoglobin (HbF) ELISA in day 7 erythroid progenitor cells;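 further: for fetal hemoglobin induction normalized to vehicle-treated cells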
Assay type: cell-based, human
TEST PARAMETERS: Homo sapiens, Erythroid progenitor cell, HbF ELISA, day 7 EPCs, 5 days; read-out: EPC ELISA (pEC50 category) (converted)
The entries below come with measured EC50 values attached.

Examples from the recorded data:
COMPOUND	EC50
CCc1c(C#N)c(SC(C(N)=O)c2ccccc2)nc(N2CCC(N3CCNC3=O)CC2)c1C#N (centres unmarked)	316 to 1000 nM
CCc1c(C#N)c(SCc2ccc(N(C)S(C)(=O)=O)cc2)nc(N2CCCN(C)CC2)c1C#N	< 316 nM
CCc1c(C#N)c(S[C@@H](C(N)=O)c2ccccc2)nc(N2CC[C@@H](O)C2)c1C#N	1000 to 31600 nM
CCc1c(C#N)c(SCc2ccc(N(C)S(C)(=O)=O)cc2)nc(N2CCCC(CN(C)C)C2)c1C#N (centres unmarked)	< 316 nM
CCc1c(C#N)c(SC(C(N)=O)c2ncccc2F)nc(N2CCCN(C)CC2)c1C#N (centres unmarked)	< 316 nM

Give a short answer stating reported EC50 for CCc1c(C#N)c(SC(C(N)=O)c2ccc(F)cn2)nc(N(C)C)c1C#N (centres unmarked) . > 31600 nM

Return value of EC50 for input CCc1c(C#N)c(SC(C(N)=O)c2ccc(F)cc2)nc(N2CCC(NCC(C)(C)C)CC2)c1C#N (centres unmarked) , no commentary. < 316 nM

Give EC50 for the following compound: CCc1c(C#N)c(SC(C(N)=O)c2ccccc2)nc(N(C)CCN2CCC[C@@H]2C)c1C#N (some centres unmarked) < 316 nM
